# ASSAYED_TARGET: Epidermal growth factor receptor (Homo sapiens) (UniProt P00533)
# Sequence (P00533 whole entry, looked up): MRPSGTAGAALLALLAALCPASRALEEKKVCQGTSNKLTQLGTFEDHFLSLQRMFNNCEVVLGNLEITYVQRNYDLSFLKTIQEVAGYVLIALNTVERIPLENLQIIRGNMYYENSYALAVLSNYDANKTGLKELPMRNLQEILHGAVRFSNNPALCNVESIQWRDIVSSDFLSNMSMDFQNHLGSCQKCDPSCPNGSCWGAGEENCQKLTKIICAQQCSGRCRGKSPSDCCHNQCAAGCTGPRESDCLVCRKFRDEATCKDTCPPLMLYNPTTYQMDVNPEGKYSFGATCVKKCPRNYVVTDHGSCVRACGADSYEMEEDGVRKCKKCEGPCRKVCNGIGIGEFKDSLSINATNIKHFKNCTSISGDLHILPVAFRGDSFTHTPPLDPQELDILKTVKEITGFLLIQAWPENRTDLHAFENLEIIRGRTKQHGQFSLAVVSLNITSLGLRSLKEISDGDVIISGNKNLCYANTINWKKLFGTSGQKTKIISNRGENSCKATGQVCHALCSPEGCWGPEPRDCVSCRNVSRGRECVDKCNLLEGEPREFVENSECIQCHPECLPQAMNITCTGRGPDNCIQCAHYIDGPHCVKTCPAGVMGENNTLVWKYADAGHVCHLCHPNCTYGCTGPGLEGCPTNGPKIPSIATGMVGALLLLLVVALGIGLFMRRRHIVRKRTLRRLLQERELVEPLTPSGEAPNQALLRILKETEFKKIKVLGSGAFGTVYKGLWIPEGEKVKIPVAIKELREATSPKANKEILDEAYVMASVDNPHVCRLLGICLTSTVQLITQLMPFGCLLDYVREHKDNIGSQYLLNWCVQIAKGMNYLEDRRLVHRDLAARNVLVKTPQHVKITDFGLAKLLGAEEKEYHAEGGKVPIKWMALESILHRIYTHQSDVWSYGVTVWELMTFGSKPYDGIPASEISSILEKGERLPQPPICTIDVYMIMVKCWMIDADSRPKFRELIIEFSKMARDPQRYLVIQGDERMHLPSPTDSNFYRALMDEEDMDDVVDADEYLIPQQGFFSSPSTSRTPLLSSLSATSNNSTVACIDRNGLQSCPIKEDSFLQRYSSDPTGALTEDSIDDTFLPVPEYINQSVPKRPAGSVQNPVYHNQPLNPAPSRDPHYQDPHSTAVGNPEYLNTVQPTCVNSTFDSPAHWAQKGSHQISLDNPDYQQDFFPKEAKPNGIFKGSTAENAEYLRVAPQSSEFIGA
# METHOD_NOTES: EGFR binders on small-molecule microarrays, primary screen, biochemical, small-molecule microarray, 635 nm fluorescence (AID 1104);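 note: score merges 667 nm emission intensity with spot signal to noise over triplicate slides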
# MEASUREMENT_CONTEXT: EGFR binding, higher = more signal
READOUT_KIND: composite z-score
Please respond with just the number, no unit label.

Problem: // returns reported composite z-score for input `C=CC[C@]1(C(=O)O)N=C(c2ccc(OCCCO)cc2)O[C@H]1c1ccccc1N=[N+]=[N-]`
Solution: -0.18

Problem: // returns reported composite z-score for input `CO[C@H]1O[C@H](CO)[C@@H](OC(=O)Nc2ccc(Oc3ccccc3)cc2)[C@H](OC(=O)Nc2ccccc2-c2ccccc2)[C@H]1OC(=O)Nc1ccccc1-c1ccccc1`
Solution: 0.528

Problem: // returns reported composite z-score for input `Cc1ccc(S[C@]2(C(=O)NC(C)C)CC(=O)N(C3Cc4ccccc4C3)[C@@H]2c2ccc(CO)cc2)cc1`
Solution: -0.544

Problem: // returns reported composite z-score for input `O=[N+]([O-])c1ccc(C[n+]2ccc3ccc(O)cc3c2)o1`
Solution: 0.219

Measured values drawn from PubChem BioAssay for this set.
